Catalogue of IC50 values
System: HCT116
assay-method-text: In Vitro cytotoxicity measured by the cell colony formation assay
Assay type: cell-based
measurement-setup: Homo sapiens, HCT-116; 72 h drug incubation, colonies counted after 7 days; concentration producing 50% inhibition of colony formation; read-out: IN VITRO ID 50 (nm) HCT116

compound: CCCC(=O)O[C@H]1C[C@H]2OC[C@@]2(OC(C)=O)[C@H]2[C@H](OC(=O)c3ccccc3)[C@]3(O)C[C@H](OC(=O)[C@H](O)[C@@H](NC(=O)OC(C)(C)CC)c4ccco4)C(C)=C([C@@H](O)C(=O)[C@]12C)C3(C)C [Compound 6272]
IC50: < 1 nM

Data request: If you can, please state the reported IC50 value of C/C=C/C(=O)N[C@@H](c1ccoc1)[C@@H](O)C(=O)O[C@H]1C[C@@]2(O)[C@@H](OC(=O)c3ccccc3)[C@@H]3[C@]4(OC(C)=O)CO[C@@H]4C[C@H](OC(=O)CC)[C@@]3(C)C(=O)[C@H](O)C(=C1C)C2(C)C [Compound 4898] .
Data returned: < 1 nM

Reference source for all entries: patent EP1285918A1
